# key: entry, value: solubility
assay notes: Kinetic solubility in PBS (HPLC solubility assay)
measurement setup: aqueous buffer, kinetic from dmso stock, Solubility sample 2, Tables S1–S3, replicate 2
Kindly provide the numeric value in µM only, without the unit symbol.

The cases that follow already have their solubility on record.
# chemical structure, display unit, solubility
rows = [
    ("CCOC(=O)[C@@H](CCC(=O)NCCCOCCOCCOCCCNC(=O)CSc1nc2c([nH]c3ccccc32)c(=O)n1-c1ccccc1)NC(=O)[C@@H](NC(=O)CNC(=O)/C=C/c1ccc(O)c(OC)c1)C(C)C", "µM", 121),
    ("CCOC(=O)[C@H](CCC(=O)NCCOCCOCCNC(=O)CSc1nc2c([nH]c3ccccc32)c(=O)n1-c1ccccc1)NC(=O)[C@H](NC(=O)CNC(=O)/C=C/c1ccc(O)c(OC)c1)C(C)C", "µM", 244),
]

Prompt: Data request, read-out solubility, for CCOC(=O)[C@H](CCC(=O)NCCNC(=O)CSc1nc2c([nH]c3ccccc32)c(=O)n1-c1ccccc1)NC(=O)[C@H](NC(=O)CNC(=O)/C=C/c1ccc(O)c(OC)c1)C(C)C
Completion: 298

Prompt: # repeat for CCOC(=O)[C@H](CCC(=O)NCCCCCCNC(=O)CSc1nc2c([nH]c3ccccc32)c(=O)n1-c1ccccc1)NC(=O)[C@H](NC(=O)CNC(=O)/C=C/c1ccc(O)c(OC)c1)C(C)C
Completion: 80.7

Prompt: Similarly, CCOC(=O)[C@H](CCC(=O)N1CCC(CN2CCN(C(=O)CSc3nc4c([nH]c5ccccc54)c(=O)n3-c3ccccc3)CC2)CC1)NC(=O)[C@H](NC(=O)CNC(=O)/C=C/c1ccc(O)c(OC)c1)C(C)C ?
Completion: 6.15

Hello, the source for this data is paper PMC12409580, in case you need it.
